- System: MS2 coat protein
- procedure.summary: apparent KD of MS2 coat protein; designed switch direction (-1 OFF switch, 1 ON switch): -1; higher = weaker reporter binding
- condition: Eterna round: R95; input ligand: none
Use yes (1) when the recorded apparent KD of MS2 coat protein is no lower than 20 nM; use no (0) when it is lower.

Item CCAGGCGUCUUGGCUCGUCUUAUUUGGAGAGGAUUGAUAACAUGAGGAUCACCCAUGUGUGUGGGAGAGUUGCAGUG [JR_SV3TOV2_Sub018] (puzzle: Sensor v3, turn-off variant 2) with apparent KD of MS2 coat protein of 20 nM or above? yes (1)

Item CGUACUGAAGUCAGGAUAUUGUCUCGGAUACGAAACAAGAAGGGACAUGAGGAUCACCCAUGUAGACAGUACGA [Malc #30 mod 3] (puzzle: Brourd's mod of Exclusion 4) with apparent KD of MS2 coat protein of 20 nM or above? yes (1)

Item UUUAAUUUUUUUUUUUUACAAGCUUUUUGCUCGUCUUAUACAUGAGGAUCACCCAUGUGAAUGGAGGAUAAAUUAUC [JMF 30] (puzzle: Sensor v3, turn-off variant 2) with apparent KD of MS2 coat protein of 20 nM or above? yes (1)

Item UCUAGACAUGAGGAUCACCCAUGUGAGGAUAUGAUGCGAAUAAAGAAAGAAGAAAGCAUCAGAAGGCACAUAUG [Fiskers Ex 1 - 3] (puzzle: Exclusion 1) with apparent KD of MS2 coat protein of 20 nM or above? yes (1)

Item AGUAGUAGUAUCCGAUCGUACAUGAGGAUCACCCAUGUAGCUAGACGUGCACGCGAUGCUCGUCAGACUACCAGAUG [salish99_TOv1_r3_036] (puzzle: Sensor v3, turn-off variant 1) with apparent KD of MS2 coat protein of 20 nM or above? yes (1)

Item GAUUAUGCGAGCUUUAGGGACAUGAGGAUCACCCAUGUUCGUCUUAUUAGUCUAGGUACACUAACAUACCUAAAUCU [JMF 18] (puzzle: Sensor v3, turn-off variant 1) with apparent KD of MS2 coat protein of 20 nM or above? yes (1)

Item GAAAAGGUAGGAUAUACGAAAAAAAAGGGAAGAAAAAAAACACAUGAGGAUCACCCAUGUAGAAGGACCAAAAG [salish99_ex2_r3_064] (puzzle: Exclusion 2) with apparent KD of MS2 coat protein of 20 nM or above? yes (1)

Item AUAGGGUCAGGAUAUACGAGCAGGAGGAUGGAGCGGAGGCGGUAGAAGGGACAUGAGGAUCACCCAUGUAAGAA [JR_Exclu4_Sub052] (puzzle: Exclusion 4) with apparent KD of MS2 coat protein of 20 nM or above? no (0)

Item AGUACUAUCACGAAAGUGAUAGUACAAUAAGCUUGUGGAACAUGAGGAUCACCCAUGUCCUCAUAAGCUCGUCUUAU [Mat - Sensor v3 - Turn-off var 2 - D27] (puzzle: Sensor v3, turn-off variant 2) with apparent KD of MS2 coat protein of 20 nM or above? no (0)

Item GAGAAGGUAGGAUAUACGAAGAAAAAGGGUAGAAGAAGAACACAUGAGGAUCACCCAUGUAGAAGGACCAAGAG [Mat - Exclusion 2 - Mod of my Tesla design - D17] (puzzle: Exclusion 2) with apparent KD of MS2 coat protein of 20 nM or above? yes (1)

Hello, the source for this data is the supplement of paper PMC9170038, in case you need it.
